Test name: self-splicing fitness, log relative to wild type (ln ratio); higher = more splicing; Tetrahymena group I intron in knt gene, E. coli kanamycin selection, DiMSum; sequences stand for … in CUCUCU…GGAGGGAAAAGUUAUCAGGCAUGCACCUGGUAGCUAGUCUUUAAACCAAUAGAUUGCAUCGGUUUAAAAGGCAAGACCGUCAAAUUGCGGGAAAGGGGUCAACAGCCGUUCAGUACCAAGUCUCAGGGGAAACUUUGAGAUGGCCUUGCAAAGGGUAUGGUAAUAAGCUGACGGACAUGGUCCUAACCACGCAGCCAAGUCCUAAGUCAACAGAUCUUCUGUUGAUAUGGAUGCAGUUCACAGACUAAAUGUCGGUCGGGGAAGAUGUAUUCUUCUCAUAAGAUAUAGUCGGACCUCUCCUUAAUGGGAGCUAGCGGAUGAAGUGAUGCAACACUGGAGCCGCUGGGAACUAAUUUGUAUGCGAAAGUAUAUUGAUUAGUUUUGGAGUACUCGUGGUCG;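 note: selection with 25 µg/mL kanamycin versus none on LB agar overnight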
Details: 30 °C
Listed below: self-splicing fitness (ln) values for each entry.
Returns: the value as a bare number; no unit string appended.

Consider the following illustrative entries.
| Chain sequence | self-splicing fitness (ln) |
| --- | --- |
| CCGGAGCAAUAUUACGCCCG | -1.86 |
| GUUUAGCAAUAUUACGGAAA | -2.38 |
| GAGGAGCAAUAUUACGCGGG | -2.11 |
| CCCUAGCAAUAUUACGCUCU | -4.04 |
| UCUUAGCAAUAUUACGCUCG | -0.481 |
| CCAUAGCAAUAUUACGCUGA | -3.52 |

-- ask Any idea what self-splicing fitness (ln) was measured for `UGCUAGCAAUAUUACGCCCA` ?
-- reply 0.275

-- ask Any idea what self-splicing fitness (ln) was measured for `GAGAAGCAAUAUUACGAACU` ?
-- reply -0.774

-- ask Any idea what self-splicing fitness (ln) was measured for `UACCAGCAAUAUUACGGUUU` ?
-- reply -0.896

-- ask Any idea what self-splicing fitness (ln) was measured for `AGGCAGCAAUAUUACGGGUC` ?
-- reply -2.67
